target: T1, monkey GPC3-His protein (monkey); experiment: ELISA, monkey GPC3-His coated;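 further: Plate-coated antigen at 1 µg/mL, antibody binding 2 h at 37 °C, detected with HRP-labeled secondary antibody and TMB, absorbance at 450 nm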
T1 construct: Bought recombinant protein; also called monkey GPC3 protein
METRIC: OD450 at 10 nM (OD450)
Express your answer in OD450, writing the number without its unit.

Query block: Please indicate OD450 at 10 nM recorded for F4.18.4 (antibody, human IgG1, kappa, V domains shown, Human-murine chimeric antibody) VH: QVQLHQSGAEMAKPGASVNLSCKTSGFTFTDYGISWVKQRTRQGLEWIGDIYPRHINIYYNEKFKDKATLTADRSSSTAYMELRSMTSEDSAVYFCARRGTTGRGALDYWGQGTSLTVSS VL: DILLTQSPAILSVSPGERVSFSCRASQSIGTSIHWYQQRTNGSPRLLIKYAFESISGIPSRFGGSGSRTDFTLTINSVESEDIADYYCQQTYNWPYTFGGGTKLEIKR
Result block: 1.32

Query block: Please indicate OD450 at 10 nM recorded for F1.42.8 (antibody, human IgG1, kappa, V domains shown, Human-murine chimeric antibody) VH: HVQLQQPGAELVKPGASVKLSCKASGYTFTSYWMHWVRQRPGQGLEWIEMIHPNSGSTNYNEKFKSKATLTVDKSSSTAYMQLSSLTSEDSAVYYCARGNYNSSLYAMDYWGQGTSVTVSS VL: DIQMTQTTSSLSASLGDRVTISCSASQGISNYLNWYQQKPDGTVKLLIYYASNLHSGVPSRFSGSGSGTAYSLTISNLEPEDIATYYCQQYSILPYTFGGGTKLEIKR
Result block: 2.46

Query block: Please indicate OD450 at 10 nM recorded for F4.13.7 (antibody, human IgG1, kappa, V domains shown, Human-murine chimeric antibody) VH: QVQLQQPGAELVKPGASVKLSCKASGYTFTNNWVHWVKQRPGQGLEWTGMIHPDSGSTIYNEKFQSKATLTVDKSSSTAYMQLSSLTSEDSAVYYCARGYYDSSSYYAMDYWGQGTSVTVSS VL: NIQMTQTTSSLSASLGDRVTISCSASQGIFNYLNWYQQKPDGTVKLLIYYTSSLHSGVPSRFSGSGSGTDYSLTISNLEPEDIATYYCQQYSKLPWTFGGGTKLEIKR
Result block: 2.4

This collection of values is drawn from patent US20260116991A1.
